# System tested: 5HT2C receptors (Homo sapiens, UniProt P28335)
# Sequence (P28335 33-458): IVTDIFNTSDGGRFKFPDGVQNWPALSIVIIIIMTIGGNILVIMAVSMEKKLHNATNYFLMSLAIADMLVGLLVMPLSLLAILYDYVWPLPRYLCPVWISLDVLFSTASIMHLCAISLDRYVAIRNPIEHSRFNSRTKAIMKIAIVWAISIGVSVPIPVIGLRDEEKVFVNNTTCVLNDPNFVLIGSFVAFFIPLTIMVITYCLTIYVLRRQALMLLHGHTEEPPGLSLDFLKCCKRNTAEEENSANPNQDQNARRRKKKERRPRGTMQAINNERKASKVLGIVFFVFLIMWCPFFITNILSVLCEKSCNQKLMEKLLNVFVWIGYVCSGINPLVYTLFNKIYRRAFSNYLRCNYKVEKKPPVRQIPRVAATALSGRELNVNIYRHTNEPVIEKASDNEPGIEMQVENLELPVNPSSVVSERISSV
# Assay: Human 5-HT2C functional high throughput screening assay in CHO-K1 cells (calcium flux)
# Type: cell-based
# Design: expressed in transfected cells; host or cells: CHO-K1 cells
# Protocol conditions: CHO-K1; 5-HT2C; maximum functional response as percentage relative to the effect of serotonin; read-out: Emax
Attribute measured: Emax (%)
Respond with the bare value in %.

CN1C[C@H]2CNC(=O)c3cc(-c4ccc5c(c4)CCO5)ccc3[C@@H]2C1 (relative stereo) [Example 321] = 90
O=C1NC[C@@H]2CN(Cc3ccccc3)C[C@H]2c2c(F)cccc21 (relative stereo) [Example 65] = 120
CN1C[C@H]2CNC(=O)c3cc(-c4ccc(F)cc4)ccc3[C@@H]2C1 [Example 116] = 90
O=C1NC[C@@H]2CNC[C@H]2c2ccc(-c3ccsc3Cl)cc21 (relative stereo) [Example 385] = 95
O=S(=O)(c1cccc(C(F)(F)F)c1)N1Cc2cccnc2[C@@H]2CNC[C@H]2C1 (relative stereo) [Example 345] = 80
COc1cc(F)ccc1-c1ccc2c(c1)C(=O)NC[C@H]1CN(C)C[C@H]21 [Example 326] = 85
O=C1Cc2ccccc2[C@@H]2CN(Cc3ccccc3)C[C@H]2N1 (relative stereo) [Example 223] = 60
CN1C[C@H]2CNC(=O)c3cc(C4CCOCC4)ccc3[C@@H]2C1 (relative stereo) [Example 267] = 90
O=S(=O)(c1ccc(C(F)(F)F)cc1)N1Cc2cccnc2[C@@H]2CNC[C@H]2C1 (relative stereo) [Example 347] = 90
COc1ccccc1S(=O)(=O)N1Cc2cccnc2[C@@H]2CNC[C@H]2C1 (relative stereo) [Example 354] = 80

Q: # return Emax of O=S(=O)(c1ccc(OC(F)(F)F)cc1)N1Cc2cccnc2[C@@H]2CNC[C@H]2C1 (relative stereo) [Example 349] (system: 5HT2C receptors (Homo sapiens, UniProt P28335))
Result: 90

Q: # return Emax of Cc1cc(-c2ccc3c(c2)C(=O)NC[C@@H]2CN(C)C[C@@H]32)ccc1F (relative stereo) [Example 314] (system: 5HT2C receptors (Homo sapiens, UniProt P28335))
Result: 95

Q: # return Emax of O=C1NC[C@@H]2CN(Cc3ccccc3)C[C@H]2c2ccc(OCCc3ccccc3)cc21 (relative stereo) [Example 121] (system: 5HT2C receptors (Homo sapiens, UniProt P28335))
Result: 120

Q: # return Emax of COc1ccc(S(=O)(=O)N2Cc3cccnc3[C@@H]3CNC[C@H]3C2)cc1 (relative stereo) [Example 346] (system: 5HT2C receptors (Homo sapiens, UniProt P28335))
Result: 85
